System: SNB-19 CNS
measurement-description: NCI tumour cell line growth inhibition, 48 h
quantity-name: GI50

Exam item: Could you share what GI50 was measured for C=C1C(O)C2C(=C(CCc3ccccc3)C13CC3)C(=O)C(C)(CO)C2O (configuration not stated) , tested on SNB-19 CNS?
Marked response: > 100 µM

Exam item: GET /values?readout=GI50&system=SNB-19 CNS&item= "COc1cc(/C=C2\C(=O)Nc3cc(C)c(O)cc32)cc(OC)c1OC"
Marked response: 10.6 µM

Exam item: Hi! What's the reported GI50 for "Cc1ccc(-c2csc(/N=C3\C(=O)Nc4ccccc43)n2)cc1" on SNB-19 CNS?
Marked response: 1.52 µM

Exam item: Recall the recorded GI50 for CCC[CH2][Sn]1([CH2]CCC)[O]CC(Cc2ccccc2)[O]1 (configuration not stated) with SNB-19 CNS and state it.
Marked response: 3.45 µM

Exam item: # query: GI50 | item "COc1cc(NC(N)=NCCC(C)(C)Oc2ccc(C(F)(F)F)cc2)ncc1C#N" | system: SNB-19 CNS
Marked response: 1.84 µM

Exam item: Form field: GI50 recorded for "Cn1cc(C2=C(c3cn(CCCCN)c4ccccc34)C(=O)NC2=O)c2ccccc21" with SNB-19 CNS (enter value)
Marked response: > 25 µM

Exam item: Notebook: pull reported GI50 for SNB-19 CNS, entry Cc1ccc(C)c2c1C(O)(C#Cc1ccccc1)c1ccccc1C2(O)C#Cc1ccccc1 (configuration not stated)
Marked response: 3.74 µM

Exam item: I'm curious: which GI50 was measured for "N[C@H](C(=O)O)[C@H]1ON=C(Cl)[C@@H]1O" tested on SNB-19 CNS?
Marked response: 40.7 µM

Exam item: Form entry - test system: SNB-19 CNS; read-out: GI50; molecule: "CO[C@H]1/C=C/O[C@@]2(C)Oc3c(C)c(O)c4c(c3C2=O)C(=O)C(/C=N/N(c2ccccc2)c2ccccc2)=C(NC(=O)/C(C)=C\C=C\[C@H](C)[C@H](O)[C@@H](C)[C@@H](O)[C@@H](C)[C@H](OC(C)=O)[C@@H]1C)C4=O"
Marked response: 1.71 µM

Exam item: For the record "CNC(=O)c1ccc(N2CCN(Cc3ccc4nc(C)c(=O)[nH]c4c3F)CC2)c(F)n1" , what value of GI50 is listed for SNB-19 CNS?
Marked response: 34.2 µM

Exam item: Provide the documented GI50 with SNB-19 CNS as the system for "CCN(Cc1cccc(F)c1)c1ccc(CO)c(Cl)c1"
Marked response: 21.8 µM

Exam item: Request - read-out GI50 | tested on SNB-19 CNS | molecule "CC(=O)[O][Ga]([Cl])[O]C(C)=O"
Marked response: > 100 µM

---

Tested on: NCI-H460 lung
measurement-description: NCI tumour cell line growth inhibition, 48 h
Exercise: state measured TGI for each of the compounds provided.

Exam item: Which value of TGI has been reported for "CC(=O)OCCCOCn1c(Cc2ccccc2)c(C)c(=O)[nH]c1=O" in the records?
Marked response: > 100 µM

Exam item: What TGI value was documented for this compound, "S=C(Nc1ccc(Br)cc1)Nc1ccc(Br)cc1" ?
Marked response: > 100 µM

Exam item: Sample CC(C)(C)N=NNc1cn(C2OC(CO)C(O)C2O)c(=O)[nH]c1=O (centres undefined) — what was its TGI?
Marked response: > 100 µM

Exam item: What does the record list as TGI for Nc1ncnc2c1nnn2C1C=CC(COS(N)(=O)=O)C1 (centres undefined) ?
Marked response: > 100 µM

Exam item: Endpoint output: TGI of "CN(C)CCNC(=O)c1cccc2c(NCCN(C)C)c3ccccc3nc12" . Value?
Marked response: 3.91 µM

Exam item: # TGI lookup, item "O=C(CO[N+](=O)[O-])Nc1ccc(C(=O)/C=C/c2ccc(Cl)cc2)cc1"
Marked response: 54.9 µM

Exam item: Which TGI reading was recorded for the compound "CC[C@]12C=CCN3CC[C@@]4(c5cc(Br)c(OC)cc5N(C)[C@H]4[C@@](O)(C(=O)NN)[C@@H]1O)[C@@H]32" ?
Marked response: > 100 µM

Exam item: Give its TGI value. Item: "COC(=O)/C(=C\Nc1cccc(C)n1)S(=O)(=O)c1ccc(C)cc1"
Marked response: > 100 µM

Exam item: Requested read-out: TGI. Entry: CC(=O)OCC1OC(n2c(-c3ccc(Cl)cc3)ccc(C#N)c2=S)C(OC(C)=O)C(OC(C)=O)C1OC(C)=O (centres undefined)
Marked response: > 100 µM

---

Tested on: NCI-H23 lung
measurement-description: NCI tumour cell line growth inhibition, 48 h
quantity-name: TGI

Exam item: Look up TGI: "N#CCc1n[nH]c(Cc2ccccc2)n1"
Marked response: > 100 µM

Exam item: Entry "Cc1cc2c(ccc3c(C)cc(=O)oc32)o1" : reported TGI = ?
Marked response: > 100 µM

Exam item: # input compound: COC(=O)C(Cc1c(C2Nc3ccccc3C2CC(NC(=O)CNC(C)=O)C(=O)OC)[nH]c2ccccc12)NC(=O)CNC(C)=O (stereo not given) ; wanted: its TGI
Marked response: > 100 µM

Exam item: Quick one: TGI of "Clc1nc(Cl)c2ncn(Cc3cccc(Cn4cnc5c(Cl)nc(Cl)nc54)c3)c2n1" ?
Marked response: 22.1 µM

Exam item: # TGI lookup, item "CCN(Cc1cccc(F)c1)c1ccc(CO)c(Cl)c1"
Marked response: 74.4 µM

Exam item: Find the recorded TGI belonging to "CCc1cccc(C)c1NC(=O)c1sc2nc3c(cc2c1N)CCCCC3" and report it.
Marked response: > 100 µM

Exam item: Query: TGI; subject: "Cc1ccc(SC(CCC(Sc2ccc(C)cc2)Sc2ccc(C)cc2)Sc2ccc(C)cc2)cc1"
Marked response: > 100 µM

Exam item: Endpoint output: TGI of "CN(CCn1cnc2c1c(=O)n(C)c(=O)n2C)C1CCCCC1" . Value?
Marked response: > 100 µM

Exam item: Tell me the measured TGI of OC(c1cc2ccccc2o1)c1cc2ccccc2s1 (stereo not given) , please.
Marked response: > 10 µM

Exam item: # query: TGI of entry "CC[C@]12C=CCN3CC[C@@]4(c5cc(Br)c(OC)cc5N(C)[C@H]4[C@@](O)(C(=O)NN)[C@@H]1O)[C@@H]32"
Marked response: > 100 µM

Exam item: # query: TGI of entry "NC(N)=N/N=C/c1nc2n(c1[N+](=O)[O-])CCS2"
Marked response: 42.6 µM

Exam item: Please give the measured TGI for this compound: "[N-]=[N+]=C1N=CN=C1c1ncn[nH]1"
Marked response: > 100 µM

Exam item: Fill blank: measured TGI of the compound "O=C(NCCC1([N+](=O)[O-])CCN(C(=O)c2ccccc2)CC1)c1ccccc1" is ____.
Marked response: > 100 µM

Exam item: Find the recorded TGI belonging to "O=C(/C=C/c1ccc(O)c(O)c1)OCCCc1ccccc1" and report it.
Marked response: 35.3 µM

Exam item: Quick check: TGI of "CO[C@H]1/C=C/O[C@@]2(C)Oc3c(C)c(O)c4c(c3C2=O)C(=O)C(/C=N/N(c2ccccc2)c2ccccc2)=C(NC(=O)/C(C)=C\C=C\[C@H](C)[C@H](O)[C@@H](C)[C@@H](O)[C@@H](C)[C@H](OC(C)=O)[C@@H]1C)C4=O" ?
Marked response: 5.1 µM

Exam item: Looking for the measured TGI of "O=C1c2ccc(O)cc2C(=O)c2ccc(O)cc21" , can you help?
Marked response: > 100 µM

Exam item: # TGI lookup, item "O=C(CO[N+](=O)[O-])Nc1ccc(C(=O)/C=C/c2ccc(Cl)cc2)cc1"
Marked response: 22.1 µM

Exam item: Item "COC(=O)/C(=C\Nc1cccc(C)n1)S(=O)(=O)c1ccc(C)cc1" has what recorded TGI?
Marked response: > 100 µM

Exam item: Any idea what its TGI is? The compound is "COC(=O)c1c(O)ccc2c1c1c(n2Cc2ccccc2Cl)C(=O)c2ccccc2C1=O"
Marked response: 29.8 µM

Exam item: Would you kindly share the measured TGI for "O=c1c(Oc2ccc(F)cc2F)cc2cnc(NC3CCOCC3)nc2n1CCCO" ?
Marked response: > 25 µM

---

System: MDA-MB-231 breast
measurement-description: NCI tumour cell line growth inhibition, 48 h
quantity-name: TGI

Exam item: Reported TGI, molecule "[N-]=[N+]=C1N=CN=C1c1ncn[nH]1" : ____
Marked response: > 100 µM

Exam item: Fill in the blank: the reported TGI of CC(=O)[C@@]1(C)CC2(CCN(C)CC2)OC1C (stereo partly specified) is ____.
Marked response: > 100 µM

Exam item: I am curious: what TGI value has been reported for "O=C1NC(SSC2=NNC3(C(=O)N2)c2ccccc2-c2ccccc23)=NNC12c1ccccc1-c1ccccc12" ?
Marked response: > 10 µM

Exam item: Item CCCCc1ccc(Nc2nc3c(ncn3C3CC(O)C(CN=[N+]=[N-])O3)c(=O)[nH]2)cc1 (stereo unspecified) has what recorded TGI?
Marked response: > 100 µM

Exam item: Which measured TGI value corresponds to "O=C(c1ccccc1)N1CCN(C(=S)N(C(=O)c2ccccc2)c2ccccc2)C1=S" ?
Marked response: > 42.5 µM

Exam item: Fill in the blank: the reported TGI of "NC(N)=N/N=C/c1nc2n(c1[N+](=O)[O-])CCS2" is ____.
Marked response: > 100 µM

Exam item: Looking for the measured TGI of "Cc1ccc(N=N/C(=N\NC(=O)c2ccc(C)cc2)c2ccc(N(CCC#N)CCC#N)cc2C)cc1" , can you help?
Marked response: > 100 µM

Exam item: Request the reported TGI associated with "OCc1ccc(-c2ccc(-c3ccc(CO)o3)[se]2)o1"
Marked response: > 100 µM

Exam item: Quick one: TGI for "COc1ccc(S(=O)(=O)N2CC(C)(C)CN(S(=O)(=O)c3ccc(OC)cc3)C2C(=O)NO)cc1" ?
Marked response: > 20 µM

Exam item: If you can, please state the reported TGI value of "COc1ccc2c(CCN)c(C(=O)O)[nH]c2c1" .
Marked response: > 100 µM

Exam item: Give the measured TGI of "Cc1[nH]c2c(c1C)S(=O)(=O)c1cc3ccccc3nc1N2" .
Marked response: 76.1 µM

Exam item: Suppose we examine the molecule "Cc1cc(=O)oc2cc(OC(=O)N(C)C)c(Cl)cc12" ; what TGI value has been reported?
Marked response: > 100 µM

Exam item: Look at this molecule and give its reported TGI. "Cc1nc(C)c(C(=O)NNC(N)=S)cc1C(=O)NNC(N)=S"
Marked response: > 100 µM

Exam item: # get_value(readout='TGI', item= "O=C(CO[N+](=O)[O-])Nc1ccc(C(=O)/C=C/c2ccc(Cl)cc2)cc1" )
Marked response: 21.2 µM

Exam item: Please give the measured TGI for this molecule: "C[Si](C)(OCCS(=O)(=O)O)C1(Cc2cccc3ccccc23)S(=O)(=O)OCCOS1(=O)=O"
Marked response: 43.3 µM

Exam item: // TGI lookup, key: "CC(C)/C(Cl)=N\OC(=O)Nc1ccccc1F"
Marked response: 22.6 µM

Exam item: Find the recorded TGI belonging to "Cc1cc(S(=O)(=O)Nc2nc3cscc3c(=O)n2Cc2ccccc2)c(S)cc1Cl" and report it.
Marked response: > 100 µM

Exam item: For the molecule shown here, "C[C@]12CC[C@H]3[C@@H](CC=C4C[C@@H](N5CCCC5)CC[C@@]43C)[C@@H]1C[C@H](N1CCOCC1)[C@@H]2O" , give the reported TGI.
Marked response: > 100 µM

Exam item: // lookup TGI for "COC(=O)c1c(O)ccc2c1c1c(n2Cc2ccccc2Cl)C(=O)c2ccccc2C1=O"
Marked response: 32.3 µM

Exam item: Give the measured TGI of "CCOP(=O)(OCC)/C(C#N)=C/c1cn(C)cn1" .
Marked response: > 100 µM

Exam item: Would you kindly share the measured TGI for "Clc1nc(Cl)c2ncn(Cc3cccc(Cn4cnc5c(Cl)nc(Cl)nc54)c3)c2n1" ?
Marked response: 7 µM
